Origin of the recorded values: patent US20200339680A1

Each entry below carries its reported MFI.
Measured Target: T1, human TMEM106B (human, UniProt Q9NUM4 2-274)
T1 construct: full-length, transiently expressed on HEK293 cells, or natively expressed on HeLa, U251 and A549 cells (the cell is named under assay); also the source of the Pepscan peptides; also called huTMEM106B; huTMEM
Assay Details: FACS HEK+huTMEM 10 ug/ml;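 also: flow cytometric binding of purified mouse IgG antibodies to HEK293 cells transiently expressing human TMEM106B, read as median fluorescence intensity on live cells with propidium iodide-positive cells excluded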
Write down the numeric answer in MFI and omit the unit.

Binder	Test Readout	Result Value
TM-29 (antibody, V domains shown) VH: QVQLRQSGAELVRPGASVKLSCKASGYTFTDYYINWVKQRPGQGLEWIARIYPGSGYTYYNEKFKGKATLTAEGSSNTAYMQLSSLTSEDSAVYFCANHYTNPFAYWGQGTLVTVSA VL: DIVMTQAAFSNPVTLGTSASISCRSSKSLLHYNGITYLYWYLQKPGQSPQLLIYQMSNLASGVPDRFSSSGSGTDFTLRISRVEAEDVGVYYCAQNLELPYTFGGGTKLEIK	MFI	61200

May I ask what MFI has been recorded for TM-12 (antibody, V domains shown) VH: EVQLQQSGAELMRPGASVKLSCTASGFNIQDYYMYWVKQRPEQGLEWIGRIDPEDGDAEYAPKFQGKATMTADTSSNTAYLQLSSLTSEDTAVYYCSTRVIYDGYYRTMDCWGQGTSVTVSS VL: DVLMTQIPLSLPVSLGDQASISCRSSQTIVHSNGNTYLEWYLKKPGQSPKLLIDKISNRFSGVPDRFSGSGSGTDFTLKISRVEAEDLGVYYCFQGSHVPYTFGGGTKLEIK ?
75300
